target: HLA-A*24:03; test: IEDB peptide-MHC binding, purified MHC/direct/fluorescence; filed as Kd, often an IC50 or EC50 that approximates it; bounds were set here for any values at or beyond the usual limits of such assays; settings: source organism: Mycobacterium tuberculosis
property label: Kd
Answer with the figure and its unit, nothing else.

Q: So what's the measured Kd for this one? PYIDAADQF
Ans: 0.0912 µM

----------
Kindly state pKd for each of the entries shown.
biological target: HLA-B*48:01; assay: IEDB peptide-MHC binding, purified MHC/direct/fluorescence; filed as Kd, often an IC50 or EC50 that approximates it; bounds were set here for any values at or beyond the usual limits of such assays; settings: source organism: Mycobacterium tuberculosis
pKd: −log10 of the molar value.

>>> value("SPREECGVF")
"≤ 4.70"

Now consider a different sequence.
Q: So what's the measured pKd for this one? KLVGIELPK
Ans: ≤ 4.70

----------
molecular target: HLA-A*01:01; experiment: IEDB peptide-MHC binding, purified MHC/competitive/radioactivity; filed as Kd, often an IC50 or EC50 that approximates it; bounds were set here for any values at or beyond the usual limits of such assays; settings: source organism: Dengue virus 3 Martinique/1243/1999
Kindly state Kd for each of the entries shown.
Numbers only, in nM.

>>> value("LSRNSTHEMY")
291

Q: So what's the measured Kd for this one? KLMSGKDVFY
Ans: 1480

----------
biological target: HLA-B*15:09; assay: IEDB peptide-MHC binding, purified MHC/direct/fluorescence; filed as Kd, often an IC50 or EC50 that approximates it; bounds were set here for any values at or beyond the usual limits of such assays; details: source organism: Ravn virus - Ravn, Kenya, 1987
pKd: −log10 of the molar value.
property label: pKd

Q: So what's the measured pKd for this one? ARHGEYAPF
Ans: ≤ 4.70

----------
Kindly state pKd for each of the entries shown.
molecular target: HLA-B*27:05; assay: IEDB peptide-MHC binding, purified MHC/direct/fluorescence; filed as Kd, often an IC50 or EC50 that approximates it; bounds were set here for any values at or beyond the usual limits of such assays; details: source organism: West Nile virus
pKd: −log10 of the molar value.

>>> value("AHYEEDVNL")
"≤ 4.70"
>>> value("LVKTESWIL")
"≤ 4.70"

Now consider a different sequence.
Q: So what's the measured pKd for this one? YTMDGEYRL
Ans: ≤ 4.70

----------
molecular target: HLA-B*46:01; test: IEDB peptide-MHC binding, purified MHC/competitive/fluorescence; filed as Kd, often an IC50 or EC50 that approximates it; bounds were set here for any values at or beyond the usual limits of such assays; conditions: source organism: Vibrio cholerae 2740-80
property label: Kd

Q: So what's the measured Kd for this one? CERYGFPAS
Ans: ≥ 20 µM

----------
target: HLA-C*14:02; experiment: IEDB peptide-MHC binding, purified MHC/competitive/fluorescence; filed as Kd, often an IC50 or EC50 that approximates it; bounds were set here for any values at or beyond the usual limits of such assays; details: source organism: human gammaherpesvirus 4
property label: Kd (nM)
Answers are plain numbers, in nM.

Q: So what's the measured Kd for this one? WPTPKTHPV
Ans: 142

----------
molecular target: HLA-A*26:01; assay: IEDB peptide-MHC binding, purified MHC/competitive/fluorescence; filed as Kd, often an IC50 or EC50 that approximates it; bounds were set here for any values at or beyond the usual limits of such assays; details: source organism: Entamoeba histolytica HM-1:IMSS
property label: Kd

Q: So what's the measured Kd for this one? KVSVGSYFC
Ans: ≥ 20 µM
